Can you tell me z-score for the items I'm about to list?
assay: blood-stage malaria parasite viability loss – strain 3D7, DAPI fluorescence, 100 nL, primary screen (AID 1184);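 further: parasites grown inside human red blood cells in medium with human serum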; conditions: P. falciparum 3D7 growth, 3 d, higher = more signal

These solved cases illustrate the format of a correct answer.
[[record]]
molecule = "COc1cc(C(O)C2C=CC3C(=O)N(C)C(=O)C3N2Nc2ccccc2)cc(OC)c1OC (stereo unspecified)"
assay_result = -0.164

[[record]]
molecule = "Cc1cc(C)c(C(O)C2C=CC3C(=O)N(c4ccccc4)C(=O)C3N2Nc2ccccc2F)c(C)c1 (stereo unspecified)"
assay_result = -0.286

[[record]]
molecule = "CC(C)C(CO)N1C(=O)[C@@H]2C3C(=O)OCCC/C=C\\[C@H]3OC23C=CCN(Cn2nnc4ccccc42)C(=O)[C@@H]13 (stereo partly specified)"
assay_result = 0.596

[[record]]
molecule = "CCOC(=O)C[C@H]1[C@H](OC(=O)c2cc3ccccc3oc2=O)[C@@H](NC(=O)c2ccc3ccccc3n2)c2cc(OCCCO)ccc2N1C(=O)Cc1ccc(OC)cc1"
assay_result = -1.42

[[record]]
molecule = "COc1cccc(C)c1NC(=O)O[C@H]1[C@H](OC(=O)Nc2ccccc2-c2ccccc2)[C@H](OC(=O)Nc2ccccc2-c2ccccc2)[C@@H](OC)O[C@@H]1CO"
assay_result = -2.51


Give one value of z-score per listed molecule.
1. COc1ccc(C#Cc2ccc3c(c2)[C@]2(C(=O)N3)[C@H](c3ccc(OCCO)cc3)N3[C@H](c4ccccc4)[C@H](c4ccccc4)OC(=O)[C@H]3[C@@H]2C(=O)NC[C@H](O)c2ccccc2)cc1
2. C=CCN1C(=O)[C@]2(CCS(=O)(=O)c3ccccc3)N=C(c3ccc(OCCCO)cc3)O[C@@H]2c2ccccc21
3. COc1cc2c(cc1O)C(C1CC1)N(C)CC2 (stereo unspecified)

-1.78
-2.33
-0.871

Could I get z-score for every one of these entries?
1. C=CC[C@@H](OC(=O)Nc1ccc(OC)cc1)c1ccc(O)c(F)c1
2. COC(=O)[C@]1(CCS(=O)(=O)c2ccccc2)N=C(c2ccc(OCCCO)cc2)O[C@@H]1c1ccccc1N=[N+]=[N-]
3. O=C1[C@H]2C=C(I)[C@H](C[C@@H]2OCCOCCO)[C@@]12CO2
4. CCCCCCc1nc(Cc2cc(OC)c(OC)c(OC)c2)cc2c1[Si](C(C)C)(C(C)C)OC2
5. CC1=C2[C@@H](CCc3ccccc3)OB(O)C[C@@H]2[C@@H]2C(=O)N(Cc3ccccc3)C(=O)[C@@H]2C1

0.765
-2.36
0.79
-2.67
1.62

Count: 3. Required value per item: z-score.
1. C=CC[C@@H](OC(=O)Nc1ccc(SC)cc1)c1ccc(O)c(F)c1
2. C=CCN1Cc2ccccc2[C@@H]2OC(c3ccc(OCCCO)cc3)=N[C@]2(CC=C)C1=O
3. CCOC(=O)C[C@H]1[C@H](OC(=O)c2ccc(-c3ccccc3)cc2)[C@@H](NC(=O)CC(C)C)c2cc(OCCCO)ccc2N1C(=O)c1ccc2ccccc2n1

1. -0.671
2. -2.08
3. -0.459

====

experiment: compound effects on hepatocellular carcinoma cell viability – HepG2, calcein-AM fluorescence, 48 h, basal, profiling panel (AID 1164); conditions: higher = more signal; further: test concentration not given here
For each entry below, report its z-score value.
One number for each entry.

Recorded results for 6 compounds are shown here.
[[record]]
compound = "COc1ccc([Si](C)(C)[C@@H]2[C@@H](CC(=O)N3CCC[C@H]3CO)O[C@]3(C(=O)N(Cc4cccc(N5C(=O)COc6ccccc65)c4)c4ccccc43)[C@H]2C)cc1"
assay_result = -4.31

[[record]]
compound = "C=CC[C@@]1(C(=O)NCCCOC)N=C(c2ccc(OCCCO)cc2)O[C@@H]1c1ccccc1"
assay_result = 0.83

[[record]]
compound = "Cc1cc(C)c(C(O)C2C=CC3C(=O)N(c4ccccc4)C(=O)C3N2Nc2ccccc2F)c(C)c1 (configuration not stated)"
assay_result = -0.631

[[record]]
compound = "COc1cc(C(O)C2C=CC3C(=O)N(C)C(=O)C3N2Nc2ccccc2)cc(OC)c1OC (configuration not stated)"
assay_result = -0.0987

[[record]]
compound = "COc1ccccc1CN1C(=O)c2ccccc2[C@](Cc2ccccc2I)(C(=O)O)[C@@H]1c1ccc(CO)cc1"
assay_result = 0.235

[[record]]
compound = "COC(=O)[C@@]1(Cc2ccc(F)cc2)[C@H]2c3cc(C(=O)N(C)C)n(CCc4ccc(OC)c(Br)c4)c3C[C@H]2CN1C(=O)c1ccccc1"
assay_result = -1.42


# context switch: different compound, same z-score
What does the data say about its z-score? Entry: COC(=O)[C@@]1(Cc2ccccc2)[C@H]2c3cc(C(=O)N4CCCC4)n(CCc4ccccn4)c3C[C@H]2CN1C(=O)c1ccccc1
-0.503
